Hello, the source for this data is ChEMBL document CHEMBL4715815, in case you need it.

# Test method notes: Tmax in Sprague-Dawley rat at 3 mg/kg, po measured up to 24 hrs by LC-MS/MS analysis
# Type: ADME, organism-based
# Condition details: in vivo

Structure notation	Units symbol	Tmax
C=CC(=O)N1CCC(Cn2cc(-c3ccc4c(c3)OCO4)c3c(N)ncnc32)CC1	min	57.6

* * *

# Target: Receptor tyrosine-protein kinase erbB-4 (Homo sapiens, UniProt Q15303)
# Sequence (Q15303 whole entry): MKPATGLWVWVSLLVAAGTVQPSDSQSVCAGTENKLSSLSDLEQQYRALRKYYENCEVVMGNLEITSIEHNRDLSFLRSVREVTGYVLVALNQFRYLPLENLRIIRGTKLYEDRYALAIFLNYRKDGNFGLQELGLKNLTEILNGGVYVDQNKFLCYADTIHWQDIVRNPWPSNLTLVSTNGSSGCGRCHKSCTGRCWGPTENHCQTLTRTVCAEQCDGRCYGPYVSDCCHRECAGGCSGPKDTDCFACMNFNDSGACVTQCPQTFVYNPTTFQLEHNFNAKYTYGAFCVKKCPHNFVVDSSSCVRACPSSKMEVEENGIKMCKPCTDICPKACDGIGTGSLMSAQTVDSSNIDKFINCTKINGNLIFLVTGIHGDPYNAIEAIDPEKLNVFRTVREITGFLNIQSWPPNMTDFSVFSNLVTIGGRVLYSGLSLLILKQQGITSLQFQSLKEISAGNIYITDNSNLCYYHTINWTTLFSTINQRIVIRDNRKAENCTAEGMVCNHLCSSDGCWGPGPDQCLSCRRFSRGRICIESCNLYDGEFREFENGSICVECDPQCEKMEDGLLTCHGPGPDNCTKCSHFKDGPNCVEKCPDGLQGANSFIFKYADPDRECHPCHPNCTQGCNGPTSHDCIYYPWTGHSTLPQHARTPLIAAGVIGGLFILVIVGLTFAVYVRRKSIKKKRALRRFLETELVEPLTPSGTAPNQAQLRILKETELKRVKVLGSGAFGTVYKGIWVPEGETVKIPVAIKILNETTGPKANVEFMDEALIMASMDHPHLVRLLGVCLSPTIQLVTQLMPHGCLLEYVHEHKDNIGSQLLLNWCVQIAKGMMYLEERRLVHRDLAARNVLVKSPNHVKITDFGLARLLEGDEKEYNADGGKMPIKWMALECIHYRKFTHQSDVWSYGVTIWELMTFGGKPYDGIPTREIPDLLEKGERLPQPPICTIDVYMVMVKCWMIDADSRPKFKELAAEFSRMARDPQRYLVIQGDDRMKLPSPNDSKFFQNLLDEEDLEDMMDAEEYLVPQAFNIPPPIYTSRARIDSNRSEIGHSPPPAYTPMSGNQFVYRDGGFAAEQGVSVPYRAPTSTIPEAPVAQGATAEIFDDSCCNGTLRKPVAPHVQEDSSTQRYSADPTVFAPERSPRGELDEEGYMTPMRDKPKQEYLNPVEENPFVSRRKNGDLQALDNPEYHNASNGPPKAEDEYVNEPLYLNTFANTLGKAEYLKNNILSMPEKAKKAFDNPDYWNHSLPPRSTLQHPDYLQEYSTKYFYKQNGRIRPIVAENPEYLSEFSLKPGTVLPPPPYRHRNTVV
pIC50: −log10 of the molar value.

Structure notation	pIC50
C=CC(=O)N1CCC(Cn2cc(-c3ccc4c(c3)OCO4)c3c(N)ncnc32)CC1	< 5.00

* * *

# Target: Mitogen-activated protein kinase kinase kinase 3 (Homo sapiens, UniProt Q99759)
# Sequence (Q99759 whole entry): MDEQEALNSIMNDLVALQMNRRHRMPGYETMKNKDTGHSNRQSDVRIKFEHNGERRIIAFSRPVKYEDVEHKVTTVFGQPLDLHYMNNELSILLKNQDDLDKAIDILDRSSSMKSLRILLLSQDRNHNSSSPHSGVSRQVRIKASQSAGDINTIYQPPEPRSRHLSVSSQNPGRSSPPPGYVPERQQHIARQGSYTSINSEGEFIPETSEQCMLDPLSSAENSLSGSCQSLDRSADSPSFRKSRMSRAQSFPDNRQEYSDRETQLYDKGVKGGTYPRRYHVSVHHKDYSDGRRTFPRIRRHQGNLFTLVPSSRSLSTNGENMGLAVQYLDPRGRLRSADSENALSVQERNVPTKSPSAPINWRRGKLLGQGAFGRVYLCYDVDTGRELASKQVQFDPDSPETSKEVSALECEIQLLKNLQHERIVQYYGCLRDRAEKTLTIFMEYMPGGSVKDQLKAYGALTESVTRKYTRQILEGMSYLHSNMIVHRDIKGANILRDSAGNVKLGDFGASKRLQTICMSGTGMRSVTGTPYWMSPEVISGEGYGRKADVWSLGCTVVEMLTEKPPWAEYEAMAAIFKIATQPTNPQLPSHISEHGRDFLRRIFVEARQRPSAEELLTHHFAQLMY
# Test method notes: Inhibition of MEKK3 (unknown origin)
pIC50: −log10 of the molar value.

Structure notation	Target	pIC50
C=CC(=O)N1CCC(Cn2cc(-c3ccc4c(c3)OCO4)c3c(N)ncnc32)CC1	Mitogen-activated protein kinase kinase kinase 3 (Homo sapiens, UniProt Q99759)	< 5.00

* * *

# Target: Tyrosine-protein kinase HCK (Homo sapiens)
# Sequence (P08631 whole entry): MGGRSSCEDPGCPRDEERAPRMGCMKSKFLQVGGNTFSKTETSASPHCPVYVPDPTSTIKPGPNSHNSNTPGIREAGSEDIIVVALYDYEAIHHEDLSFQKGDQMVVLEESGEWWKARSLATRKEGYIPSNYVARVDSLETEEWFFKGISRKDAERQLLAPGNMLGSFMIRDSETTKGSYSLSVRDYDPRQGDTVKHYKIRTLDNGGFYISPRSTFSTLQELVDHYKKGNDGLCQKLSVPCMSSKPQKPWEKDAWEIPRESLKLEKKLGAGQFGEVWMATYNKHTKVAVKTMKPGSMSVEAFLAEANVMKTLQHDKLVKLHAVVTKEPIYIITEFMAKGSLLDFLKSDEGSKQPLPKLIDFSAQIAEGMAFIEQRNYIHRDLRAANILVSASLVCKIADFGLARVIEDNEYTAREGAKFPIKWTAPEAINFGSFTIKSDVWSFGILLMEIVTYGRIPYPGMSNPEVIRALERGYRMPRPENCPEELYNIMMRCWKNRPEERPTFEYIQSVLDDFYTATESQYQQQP
pIC50: −log10 of the molar value.

Structure notation	Target	pIC50
C=CC(=O)N1CCC(Cn2cc(-c3ccc4c(c3)OCO4)c3c(N)ncnc32)CC1	Tyrosine-protein kinase HCK (Homo sapiens)	5.95

* * *

Recorded measurements of solubility, one per entry
# Test method notes: Aqueous solubility of compound at 1 mg
# Condition details: aqueous medium

Compound	solubility
C=CC(=O)N1CCCC(Cn2cc(-c3ccc(Oc4ccccc4)cc3)c3c(N)ncnc32)C1 (single isomer, unassigned; form 2)	< 0.01 mg/mL
C=CC(=O)N1CCC(Cn2nc(-c3ccc4c(c3)OCO4)c3c(N)ncnc32)CC1	0.1 mg/mL
C=CC(=O)N1CCC(CCn2cc(-c3ccc(Oc4ccccc4)cc3)c3c(N)ncnc32)CC1	< 0.01 mg/mL
C=CC(=O)N1CCC(Cn2cc(-c3ccc(OCc4ccccc4)cc3)c3c(N)ncnc32)CC1	< 0.01 mg/mL
